- Tested on: virus of hepatitis C strain JFH-1 (genotype 2a)
- method description: microbe, parasite or virus in culture
- Format: cell-based
- protocol conditions: Hepatitis C virus, Huh-7.5.1; Huh7.5.1 cells, HCV JFH-1, 72 hours incubation; read-out: IC50 (IC50^HCV, antiviral activity)
Where a name gives a salt, the structure may show the parent alone.
recorded metric: IC50

Some molecules with recorded IC50:
# molecule, measured target, test value
rows = [
    ("CCOC(=O)c1c(CN(C)C)n(C)c2cc(-c3cccnc3)c(O)c(CN3CCCC3)c12.Cl.Cl.Cl [1.1.5(2c), hydrochloride]", "virus of hepatitis C strain JFH-1 (genotype 2a)", "7 µM"),
    ("CCOC(=O)c1c(CSc2ccccc2)n(C)c2cc(C#N)c(O)c(CN(C)C)c12 [1.1(15)]", "virus of hepatitis C strain JFH-1 (genotype 2a)", "28 µM"),
    ("CCOC(=O)c1c(CN2CCCC2)n(C)c2cc(-c3cccnc3)c(O)c(CN(C)C)c12 [1.1.5(5c), hydrochloride]", "virus of hepatitis C strain JFH-1 (genotype 2a)", "< 5 µM"),
]

Then this molecule:
Data request, read-out IC50, for CCOC(=O)c1c(C[S+]([O-])c2ccccc2)n(C)c2cc(-c3cccnc3)c(O)c(CN(C)C)c12.Cl.Cl (stereo not shown) [1.1.2(42)] 18 µM
